measurement_target: Neutral ceramidase (Homo sapiens, UniProt Q9NR71)
Sequence (Q9NR71 whole entry): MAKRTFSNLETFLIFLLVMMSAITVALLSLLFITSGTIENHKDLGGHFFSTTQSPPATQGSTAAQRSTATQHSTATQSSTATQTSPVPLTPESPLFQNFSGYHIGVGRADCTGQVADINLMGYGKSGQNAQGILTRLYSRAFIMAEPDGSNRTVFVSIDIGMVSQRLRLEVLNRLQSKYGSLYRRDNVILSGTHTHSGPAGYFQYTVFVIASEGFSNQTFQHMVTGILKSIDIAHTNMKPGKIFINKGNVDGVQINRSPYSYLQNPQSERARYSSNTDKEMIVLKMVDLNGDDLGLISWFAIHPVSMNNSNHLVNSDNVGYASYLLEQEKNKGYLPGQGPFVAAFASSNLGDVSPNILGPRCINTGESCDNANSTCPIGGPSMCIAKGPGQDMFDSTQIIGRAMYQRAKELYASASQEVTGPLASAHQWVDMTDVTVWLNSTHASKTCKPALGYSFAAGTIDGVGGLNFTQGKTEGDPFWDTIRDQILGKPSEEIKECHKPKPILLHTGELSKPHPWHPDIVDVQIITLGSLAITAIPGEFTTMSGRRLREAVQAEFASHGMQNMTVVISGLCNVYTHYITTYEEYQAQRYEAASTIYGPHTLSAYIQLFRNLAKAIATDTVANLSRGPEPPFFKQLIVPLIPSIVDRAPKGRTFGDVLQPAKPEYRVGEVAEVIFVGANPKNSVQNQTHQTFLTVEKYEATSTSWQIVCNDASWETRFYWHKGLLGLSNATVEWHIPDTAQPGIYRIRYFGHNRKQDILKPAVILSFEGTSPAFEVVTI
assay_name: Inhibition of human ASAH2 stably over expressed in human A-375 cell lysate using RBM14C24 fluorogenic substrate measured at 20 uM at pH 7.5 by fluorescence spectrophotometry
Format: subcellular
The source made the active and inactive calls. No cut-off for these calls is given here.
Outcome (select one): active, inactive

Field: outcome | Entry: CCCCCCCCCCCC/C=C/[C@@H](O)[C@@H](C)NC(=O)c1ccc(OCOC)cc1 inactive

Try this compound too: CCCCCCCCCCCC/C=C/[C@@H](O)[C@@H](C)NC(=O)c1ccc(OCCCCCC)cc1 inactive

Cool, now CCCCCCCCCCCC/C=C/[C@@H](O)[C@@H](C)NC(=O)c1ccc(OCCCCC)cc1 inactive

Quick one: CCCCCCCCCCCC/C=C/[C@@H](O)[C@@H](C)NC(=O)c1ccc(CCCCC)cc1 inactive

Another: CCCCCCCCCCCC/C=C/[C@@H](O)[C@@H](C)NC(=O)c1ccc(OCCCCCCCOCOC)cc1 inactive

Note, next up: CCCCCCCCCCCC/C=C/[C@@H](O)[C@@H](C)NC(=O)c1ccc(OCCCCCOCOC)cc1 inactive

How about CCCCCCCCCCCC/C=C/[C@@H](O)[C@@H](C)NC(=O)c1ccc(OCCCCCCC)cc1 ? inactive

Next compound: CCCCCCCCCCCC/C=C/[C@@H](O)[C@@H](C)NC(=O)c1ccc(CCCCCCC)cc1 active

Okay, and CCCCCCCCCCCC/C=C/[C@@H](O)[C@@H](C)NC(=O)c1ccc(OCCOCOC)cc1 ? inactive

Do the same for CCCCCCCCCCCC/C=C/[C@@H](O)[C@@H](C)NC(=O)c1ccccc1 please inactive

Another compound: CCCCCCCCCCCC/C=C/[C@@H](O)[C@@H](C)NC(=O)c1ccc(OCCOCCOC)cc1 inactive

Same for CCCCCCCCCCCC/C=C/[C@@H](O)[C@@H](C)NC(=O)c1ccc(C(C)(C)C)cc1 inactive

Now consider CCCCCCCCCCCC/C=C/[C@@H](O)[C@@H](C)NC(=O)c1ccc(CCCCCC)cc1 and answer again. inactive

Now consider CCCCCCCCCCCC/C=C/[C@@H](O)[C@@H](C)NC(=O)c1ccc(OCCCOCOC)cc1 and answer again. inactive

// next record CCCCCCCCCCCC/C=C/[C@@H](O)[C@@H](C)NC(=O)c1ccc(CC)cc1 inactive

Another compound to check: CCCCCCCCCCCC/C=C/[C@@H](O)[C@@H](C)NC(=O)c1ccc(CCC)cc1 inactive
